The values you see were collected from paper PMC8097376.

Biological target: S1 domain of the SARS-CoV-2 spike protein (SARS-CoV-2, UniProt P0DTC2 14-681)
recordedMetric: pIC50
When answering, recall that pIC50 equals minus log10 of the concentration in mol/L, and write that number alone.

Completed entries (count: 3):
nanobody NM1226 (VHH) VHH: QVQLVESGGGSVQPGGSLRLSCLGSGSLDYYAIGWFRQAPGKEREGVSCIASSGDRTIYADSVKGRFTISRDYGKNTVYLQMNSLKPEDTAMYYCAALQGSYYYTGFVANEYDYWGQGAPVTVSS | 8.84
nanobody NM1221 (VHH) VHH: DVQLVESGGGLVQPGGSLTLSCVGSGFLFSGYAMNWYRQAPGKALELVAGISNAGDITHYEEAMKGRVAISRVNDKNTVYLQMDDLKPEDTAVYRCHAPGVRVASGERNDVWGQGTQVTVSS | 7.36
nanobody NM1227 (VHH) VHH: EVQLVESGGGLVQPGGSLTLSCETSGRHFDIDDMGWYRQAPGKQRELVACITTESSTTYADAVKGRFTISRDNPDNTVYLQMTNLKPEDTAVYYCNAEMHPRSLDYALGNRDYWGQGAPVTVSS | 8.45

Q. Which pIC50 is reported for this binder? nanobody NM1229 (VHH) VHH: EVQLQESGGGLVQPGESLRLSCAASGRTHDWYTMGWFRQAPGKEREFVARINWSSGMTYYADSVKGRFTISRDNPKNTVYLQMNSLTPDDTAVYYCNVHPFTSPDYWGQGTRVTVSS
A. 7.25

Q. What value of pIC50 has been recorded for this entry: nanobody NM1222 (VHH) VHH: EVQLVESGGGLVRPGGSLRLSCVGSGFTFSGYAINWYRQAPGKALELVAGISNAGDLTHYEEAMKGRVAISRANDKNTVYLQMDDLKPEDTAVYRCHAPGVRVGTGERNDVWGQGAQVTVSS
A. 7.56

Q. Which pIC50 value belongs to nanobody NM1230 (VHH) VHH: QVQLVESGGGLVRPGGSLRLSCVGSGFTFSGYAMNWYRQAPGKALELVAGISNAGDLTHYEEPMKGRVAISRANDKNTVYLQMDDLKPEDTAVYRCHAPGVRVGTGERKDVWGQGAQVTVSS ?
A. 7.98

Q. # lookup: pIC50 of nanobody NM1228 (VHH) VHH: DVQLVESGGGLVRPGGSLRLSCESSGRHFDIDTMGWYRQAPGKQRELVASITSEKSTVYADALKGRFTISRDIPDNNVYLQMNNLKPEDTAVYYCNAKMDPHSLDYALGNQVFWGQGSLVTVSS
A. 9.07
